Target: HLA-A*03:01
Assay: IEDB peptide-MHC binding, purified MHC/direct/fluorescence; filed as Kd, often an IC50 or EC50 that approximates it; bounds were set here for any values at or beyond the usual limits of such assays
Conditions: source organism: Brucella melitensis
MEASURE NAME: pKd
Lab note — pKd values are minus log10 of concentrations in M.

Tell me the measured pKd of `SRIGAWASK` , please.
5.23

---

Molecular target: HLA-B*57:01
Experiment: IEDB peptide-MHC binding, purified MHC/competitive/fluorescence; filed as Kd, often an IC50 or EC50 that approximates it; bounds were set here for any values at or beyond the usual limits of such assays
Settings: source organism: Deerpox virus W-848-83
MEASURE NAME: Kd

# value lookup — system HLA-B*57:01, readout Kd, item `YVAGITLTH`
≥ 20 µM
